These measurements were taken from patent US20230257383A1.

- test_description: Pharmacokinetic test, oral, SD rats
- Assay type: in vivo
- condition_notes: rat, plasma, oral 10 mg/kg
measured_parameter: AUC(0-inf) (ng·h/mL)

- Nc1nccn2c(C34CCC(CO)(CC3)OC4)nc(-c3ccc(C(F)(F)c4ccccc4F)cc3)c12 [Example 145]: 17200

----------
- test_description: Liver microsome metabolic stability test (human)
- Type: in vitro ADME
- condition_notes: liver microsomes, read-out: CLint (μL/min/mg) Human
- Procedure: 1: To the sample wells of T0, T5, T10, T20, T30, T60 and NCF60, 10 μL of the test or reference working solution and 80 μL of microsome working solution (hepatic microsome with a protein concentration of 0.5 mg/mL) were added, and to Blank60 well, only the microsome working solution was added. […] 6: Data analysis: T1/2 and CLint(mic) (μL/min/mg) values were calculated according to the first-order elimination kinetics. […]
Listed molecules paired with reported microsomal CLint
measured_parameter: microsomal CLint

• CC#CC(=O)N1CC[C@@H](n2c(=O)n(-c3ccc(Oc4ccccc4)cc3)c3c(N)ncnc32)C1 [Tirabrutinib, reference compound] = 13.1 µL/min/mg
• Nc1nccn2c(C34CCC(CO)(CC3)OC4)nc(-c3ccc(C(=O)Nc4ccccn4)cc3)c12 = < 9.6 µL/min/mg
• N#Cc1ccnc(NC(=O)c2ccc(-c3nc(C4CCC(CO)OC4)n4ccnc(N)c34)cc2)c1 (stereo not shown) = < 9.6 µL/min/mg
• Nc1nccn2c(C34CCC(CO)(CC3)OC4)nc(-c3ccc(C(F)(F)c4ccccc4F)cc3)c12 = 22.7 µL/min/mg

----------
- test_description: Blood-brain barrier permeability test, oral, SD rats
- Type: in vivo
- condition_notes: rat, brain/plasma, oral 10 mg/kg single dose, time point 4 h, read-out: Brain tissue/plasma
measured_parameter: Kp at 4 h

* Nc1nccn2c(C3CCC(CO)OC3)nc(-c3ccc(C(F)(F)c4ccccc4)cc3)c12 (single isomer, unassigned) [Example 111-P1] | 0.59
* CC#CC(=O)N1CC[C@@H](n2c(=O)n(-c3ccc(Oc4ccccc4)cc3)c3c(N)ncnc32)C1 [Tirabrutinib, reference compound] | 0.054
* Nc1nccn2c(C34CCC(CO)(CC3)OC4)nc(-c3ccc(C(F)(F)c4cccc(F)c4Cl)cc3)c12 [Example 146] | 1.1
* Nc1nccn2c(C34CCC(CO)(CC3)OC4)nc(-c3ccc(C(F)(F)c4ccccc4F)cc3)c12 [Example 145] | 0.53
* Nc1nccn2c(C34CCC(CO)(CC3)OC4)nc(-c3ccc(C(F)(F)c4ccccc4Cl)cc3)c12 [Example 155] | 1.19
* Nc1nccn2c(C34CCC(CO)(CC3)OC4)nc(-c3ccc(C(F)(F)c4cccc(Cl)c4F)cc3)c12 [Example 152] | 0.32
* Cc1cc(Nc2ncnc3ccc(NC4=NC(C)(C)CO4)cc23)ccc1Oc1ccn2ncnc2c1 [Tucatinib, reference compound] | 0.013
* Nc1nccn2c(C34CCC(CO)(CC3)OC4)nc(-c3ccc(C(F)(F)c4ccccc4)cc3)c12 [Example 125] | 0.84

----------
- test_description: Liver microsome metabolic stability test (rat)
- Type: in vitro ADME
- condition_notes: 60 min
- Procedure: 1: To the sample wells of T0, T5, T10, T20, T30, T60 and NCF60, 10 μL of the test or reference working solution and 80 μL of microsome working solution (hepatic microsome with a protein concentration of 0.5 mg/mL) were added, and to Blank60 well, only the microsome working solution was added. […] 6: Data analysis: T1/2 and CLint(mic) (μL/min/mg) values were calculated according to the first-order elimination kinetics. […]
Respond with class 1 for % Remaining (60 min) Rat values of 10% and above, class 0 for values below.

* Nc1nccn2c(C3CCC(CO)OC3)nc(-c3ccc(Oc4cccc(Cl)c4F)cc3)c12 (stereo not drawn) [Example 9] | class 0
* Nc1nccn2c(C3CCC(CO)OC3)nc(-c3ccc(Oc4ccccc4)cc3)c12 (stereo not drawn) [Example 16] | class 1
* Nc1nccn2c(C34CCC(CO)(CC3)OC4)nc(-c3ccc(C(F)(F)c4ccccc4F)cc3)c12 [Example 145] | class 1
* Nc1nccn2c(C3CC[C@@H](CO)OC3)nc(-c3ccc(C(=O)Nc4ccccn4)cc3F)c12 (stereo partly drawn) [Example 1-B] | class 1
* COc1cccc(Oc2ccc(-c3nc(C4CCC(CO)OC4)n4c(Cl)cnc(N)c34)cc2)c1F (stereo not drawn) [Example 12] | class 0
* Nc1nccn2c([C@@H]3CC[C@H](CO)OC3)nc(-c3ccc(C(=O)Nc4ccccn4)cc3)c12 (single isomer, unassigned) [Example 2-A-P1] | class 1
